# OX2R agonist activity (3 μM, %) values compiled below
TARGET_SYSTEM: human orexin type 2 receptor (Homo sapiens, UniProt O43614)
Construct: expressed in transfected cells
Sequence (O43614 whole entry): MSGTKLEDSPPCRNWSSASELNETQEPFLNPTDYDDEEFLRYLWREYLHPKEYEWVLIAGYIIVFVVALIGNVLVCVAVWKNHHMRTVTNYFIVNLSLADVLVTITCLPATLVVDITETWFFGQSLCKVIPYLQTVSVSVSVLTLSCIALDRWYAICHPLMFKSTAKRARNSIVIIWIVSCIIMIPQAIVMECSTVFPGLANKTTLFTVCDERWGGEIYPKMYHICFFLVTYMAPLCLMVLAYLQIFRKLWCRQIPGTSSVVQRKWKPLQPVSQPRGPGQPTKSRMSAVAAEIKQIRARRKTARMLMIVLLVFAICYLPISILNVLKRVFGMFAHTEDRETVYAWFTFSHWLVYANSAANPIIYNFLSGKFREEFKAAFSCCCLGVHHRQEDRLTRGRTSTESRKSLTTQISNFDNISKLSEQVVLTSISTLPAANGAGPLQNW
ASSAY_NOTES: Measurement of orexin type 2 receptor agonist activity (calcium indicator fluorescence, CHO cells forcibly expressing human OX2 receptor)
Format: cell-based
TEST_SETTINGS: compound at 3 μM; 0% = DMSO, 100% = orexin A (human) 10 nM

>  <COMPOUND>
CCS(=O)(=O)N[C@H]1[C@@H](F)CN(C(=O)[C@H]2CCCO2)[C@H]1Cc1cccc(-c2cc(F)ccc2F)c1F

>  <TARGET_SYSTEM>
human orexin type 2 receptor (Homo sapiens, UniProt O43614)

>  <OX2R agonist activity (3 μM, %)>
101%

$$$$
>  <COMPOUND>
CS(=O)(=O)N[C@@H]1[C@H](Cc2cccc(-c3ccccc3)c2F)N(C(=O)C2CCO2)CC1(F)F (stereo partly shown)

>  <TARGET_SYSTEM>
human orexin type 2 receptor (Homo sapiens, UniProt O43614)

>  <OX2R agonist activity (3 μM, %)>
102%

$$$$
>  <COMPOUND>
CCS(=O)(=O)N[C@@H]1[C@H](Cc2cccc(-c3cccc(C)c3)c2F)N(C(=O)N(C)C)CC1(F)F

>  <TARGET_SYSTEM>
human orexin type 2 receptor (Homo sapiens, UniProt O43614)

>  <OX2R agonist activity (3 μM, %)>
92%

$$$$
>  <COMPOUND>
CCS(=O)(=O)N[C@@H]1[C@H](Cc2cccc(-c3cccc(OC(F)F)c3)c2F)N(C(=O)C(C)C)CC1(F)F

>  <TARGET_SYSTEM>
human orexin type 2 receptor (Homo sapiens, UniProt O43614)

>  <OX2R agonist activity (3 μM, %)>
94%

$$$$

---

TARGET_SYSTEM: human orexin type 2 receptor (Homo sapiens, UniProt O43614)
Construct: expressed in transfected cells
ASSAY_NOTES: Measurement of orexin type 2 receptor agonist activity (calcium indicator fluorescence, CHO cells forcibly expressing human OX2 receptor)
Assay type: cell-based
TEST_SETTINGS: compound at 3 μM; 0% = DMSO, 100% = orexin A (human) 10 nM
OBSERVED_PROPERTY: OX2R agonist activity (3 μM, %)

>  <MOLECULE>
CCS(=O)(=O)N[C@H]1[C@@H](F)CN(C(=O)C(C)(C)O)[C@H]1Cc1cccc(-c2cccc(Cl)c2)c1F

>  <READOUT_NUMBER>
93

$$$$
>  <MOLECULE>
CCS(=O)(=O)N[C@@H]1[C@H](Cc2cccc(-c3cccc(C(F)F)c3)c2F)N(C(=O)C2CC2)CC1(F)F

>  <READOUT_NUMBER>
96

$$$$
>  <MOLECULE>
CS(=O)(=O)N[C@@H]1[C@H](Cc2cccc(-c3cc(F)cc(F)c3)c2F)N(C(=O)[C@@H]2CCO2)CC1(F)F

>  <READOUT_NUMBER>
99

$$$$
>  <MOLECULE>
CCS(=O)(=O)N[C@H]1[C@@H](F)CN(C(=O)C2CCO2)[C@H]1Cc1cccc(-c2cccc(Cl)c2)c1F (stereo partly shown) [Example 422]

>  <READOUT_NUMBER>
102

$$$$
>  <MOLECULE>
CCS(=O)(=O)N[C@@H]1[C@H](Cc2cccc(-c3cccc(F)c3)c2F)N(C(=O)[C@H]2CCCO2)CC1(F)F

>  <READOUT_NUMBER>
85

$$$$
>  <MOLECULE>
CCS(=O)(=O)N[C@@H]1[C@H](Cc2cccc(-c3cc(F)cc(F)c3)c2F)N(C(=O)C2CC2)CC1(F)F

>  <READOUT_NUMBER>
88

$$$$
>  <MOLECULE>
CC(C)C(=O)N1C[C@H](F)[C@H](NS(C)(=O)=O)[C@@H]1Cc1cccc(-c2cc(F)cc(F)c2)c1F

>  <READOUT_NUMBER>
101

$$$$

---

# OX2R agonist activity (3 μM, %) values compiled below
TARGET_SYSTEM: human orexin type 2 receptor (Homo sapiens, UniProt O43614)
Construct: expressed in transfected cells
ASSAY_NOTES: Measurement of orexin type 2 receptor agonist activity (calcium indicator fluorescence, CHO cells forcibly expressing human OX2 receptor)
Type: cell-based
TEST_SETTINGS: compound at 3 μM; 0% = DMSO, 100% = orexin A (human) 10 nM

>  <COMPOUND>
CCS(=O)(=O)N[C@@H]1[C@H](Cc2cccc(-c3cc(F)cc(F)c3)c2F)N(C(=O)C2(O)CCC2)CC1(F)F

>  <UNIT_TEXT>
%

>  <OX2R agonist activity (3 μM, %)>
88

$$$$
>  <COMPOUND>
CS(=O)(=O)N[C@@H]1[C@H](Cc2cccc(-c3cccc(F)c3)c2F)N(C(=O)C2(O)CCC2)CC1(F)F

>  <UNIT_TEXT>
%

>  <OX2R agonist activity (3 μM, %)>
93

$$$$
>  <COMPOUND>
CS(=O)(=O)N[C@@H]1[C@H](Cc2cccc(-c3cccc(Cl)c3F)c2F)N(C(=O)C2CCO2)CC1(F)F (stereo partly shown) [Example 263]

>  <UNIT_TEXT>
%

>  <OX2R agonist activity (3 μM, %)>
103

$$$$
>  <COMPOUND>
CCS(=O)(=O)N[C@H]1[C@@H](F)CN(C(=O)C23CC(C2)C3)[C@H]1Cc1cccc(-c2cc(F)cc(F)c2)c1F

>  <UNIT_TEXT>
%

>  <OX2R agonist activity (3 μM, %)>
93

$$$$
>  <COMPOUND>
CCS(=O)(=O)N[C@@H]1[C@H](Cc2cccc(-c3cc(F)cc(F)c3)c2F)N(C(=O)C(C)(C)O)CC1(F)F

>  <UNIT_TEXT>
%

>  <OX2R agonist activity (3 μM, %)>
106

$$$$
>  <COMPOUND>
CS(=O)(=O)N[C@@H]1[C@H](Cc2cccc(-c3cc(F)cc(F)c3)c2F)N(C(=O)[C@H]2C[C@@H](F)C2)CC1(F)F

>  <UNIT_TEXT>
%

>  <OX2R agonist activity (3 μM, %)>
101

$$$$
>  <COMPOUND>
CCS(=O)(=O)N[C@@H]1[C@H](Cc2cccc(-c3ccccc3)c2F)N(C(=O)C(C)(C)O)CC1(F)F

>  <UNIT_TEXT>
%

>  <OX2R agonist activity (3 μM, %)>
117

$$$$

---

TARGET_SYSTEM: human orexin type 2 receptor (Homo sapiens)
Construct: expressed in transfected cells
ASSAY_NOTES: Measurement of orexin type 2 receptor agonist activity (calcium indicator fluorescence, CHO cells forcibly expressing human OX2 receptor)
Assay type: cell-based
TEST_SETTINGS: compound at 3 μM; 0% = DMSO, 100% = orexin A (human) 10 nM
OBSERVED_PROPERTY: OX2R agonist activity (3 μM, %)

>  <MOLECULE>
O=C(C1CCO1)N1C[C@H](F)[C@H](NS(=O)(=O)C2CC2)[C@@H]1Cc1cccc(-c2ccccc2F)c1F (some centres unmarked)

>  <UNIT_TEXT>
%

>  <READOUT_NUMBER>
108

$$$$
>  <MOLECULE>
O=C(C1CCO1)N1C[C@H](F)[C@H](NS(=O)(=O)C2CC2)[C@@H]1Cc1cccc(-c2ccccc2)c1F (some centres unmarked) [Example 496]

>  <UNIT_TEXT>
%

>  <READOUT_NUMBER>
95

$$$$
>  <MOLECULE>
CCS(=O)(=O)N[C@@H]1[C@H](Cc2cccc(-c3ccc(F)c(F)c3F)c2F)N(C(=O)C2CCO2)CC1(F)F (some centres unmarked) [Example 470]

>  <UNIT_TEXT>
%

>  <READOUT_NUMBER>
103

$$$$
>  <MOLECULE>
CCS(=O)(=O)N[C@@H]1[C@H](Cc2cccc(-c3ccc(F)c(F)c3)c2F)N(C(=O)C2CCO2)CC1(F)F (some centres unmarked) [Example 468]

>  <UNIT_TEXT>
%

>  <READOUT_NUMBER>
102

$$$$
>  <MOLECULE>
CCS(=O)(=O)N[C@H]1[C@@H](F)CN(C(=O)C(C)(C)O)[C@H]1Cc1cccc(-c2cc(F)cc(F)c2)c1F

>  <UNIT_TEXT>
%

>  <READOUT_NUMBER>
90

$$$$
>  <MOLECULE>
Cc1cccc(-c2cccc(C[C@H]3[C@@H](NS(=O)(=O)C4CC4)[C@@H](F)CN3C(=O)C3CCO3)c2F)c1F (some centres unmarked) [Example 487]

>  <UNIT_TEXT>
%

>  <READOUT_NUMBER>
95

$$$$
>  <MOLECULE>
CCS(=O)(=O)N[C@H]1[C@@H](F)CN(C(=O)C2CCO2)[C@H]1Cc1cccc(-c2cc(C)ccc2F)c1F (some centres unmarked)

>  <UNIT_TEXT>
%

>  <READOUT_NUMBER>
96

$$$$
>  <MOLECULE>
O=C(C1CCO1)N1C[C@H](F)[C@H](NS(=O)(=O)C2CC2)[C@@H]1Cc1cccc(-c2cccc(Cl)c2)c1F (some centres unmarked) [Example 485]

>  <UNIT_TEXT>
%

>  <READOUT_NUMBER>
93

$$$$
>  <MOLECULE>
Cc1cccc(-c2cccc(C[C@H]3[C@@H](NS(=O)(=O)C4CC4)[C@@H](F)CN3C(=O)C3(O)CCC3)c2F)c1

>  <UNIT_TEXT>
%

>  <READOUT_NUMBER>
100

$$$$
>  <MOLECULE>
CC(C)(O)C(=O)N1C[C@H](F)[C@H](NS(=O)(=O)C2CC2)[C@@H]1Cc1cccc(-c2cccc(F)c2F)c1F

>  <UNIT_TEXT>
%

>  <READOUT_NUMBER>
94

$$$$
>  <MOLECULE>
CCS(=O)(=O)N[C@H]1[C@@H](F)CN(C(=O)C2CCO2)[C@H]1Cc1cccc(-c2cccc(C(F)F)c2)c1F (some centres unmarked)

>  <UNIT_TEXT>
%

>  <READOUT_NUMBER>
102

$$$$
>  <MOLECULE>
CC(C)(O)C(=O)N1CC(F)(F)[C@H](NS(C)(=O)=O)[C@@H]1Cc1cccc(-c2cccc(Cl)c2)c1F

>  <UNIT_TEXT>
%

>  <READOUT_NUMBER>
98

$$$$
>  <MOLECULE>
CC(C)C(=O)N1CC(F)(F)[C@H](NS(C)(=O)=O)[C@@H]1Cc1cccc(-c2cccc(F)c2F)c1

>  <UNIT_TEXT>
%

>  <READOUT_NUMBER>
94

$$$$
>  <MOLECULE>
CCS(=O)(=O)N[C@@H]1[C@H](Cc2cccc(-c3ccc(F)c(F)c3F)c2F)N(C(=O)C2CCO2)CC1(F)F (some centres unmarked) [Example 471]

>  <UNIT_TEXT>
%

>  <READOUT_NUMBER>
94

$$$$
